Every entry's value here was drawn from PubChem BioAssay AID686978.

# Protocol Details: qHTS for Inhibitors of human tyrosyl-DNA phosphodiesterase 1 (TDP1): qHTS in cells in absence of CPT; further: nearly all actives have a fitted effect of over 55% in size
# Experimental Conditions: DT40 Tdp1-/- hTDP1 cells, no CPT, ATP luminescence, 48 h
Out of some 420,000 compounds screened, about 64,000 (15%) were called active. Inconclusive results (about 27%) are left out. The call rests on the fitted dose curve; in most records, active means well fitted inhibition curve with a large enough effect; inconclusive means small, poorly fitted or top-dose-only effect; inactive means flat fitted curve, though single readings scatter. These entries were drawn from the full list.
Pick from Y = active, N = inactive when you respond.

I would be grateful if you could indicate the recorded call for "O=C(O)c1ccc(NN=CC2=C(N3CCOCC3)/C(=C/c3ccccc3)CC2)cc1" .
Y

Any idea what this test logged for "COc1ccc(-c2[nH]c3c(c2-c2c(-n4cccc4)n(C)c(=O)n(C)c2=O)c(=O)n(C)c(=O)n3C)cc1" ?
N

Per the assay record, what outcome was assigned to CC(OC(=O)c1ccc(NS(=O)(=O)c2ccc3[nH]c(=O)[nH]c3c2)cc1)C(=O)Nc1cccc(Cl)c1Cl (stereo not given) ?
N

---

# Protocol Details: qHTS for Inhibitors of human tyrosyl-DNA phosphodiesterase 1 (TDP1): qHTS in cells in absence of CPT; further: nearly all actives have a fitted effect of over 55% in size
# Experimental Conditions: DT40 Tdp1-/- hTDP1 cells, no CPT, ATP luminescence, 48 h
Hit rate of the full screen: of about 420,000 compounds, about 64,000 (15%) were called active. Inconclusive results (about 27%) are left out. The call rests on the fitted dose curve; in most records, active means well fitted inhibition curve with a large enough effect; inconclusive means small, poorly fitted or top-dose-only effect; inactive means flat fitted curve, though single readings scatter. These entries were drawn from the full list.
Output constraint: value belongs to True = active, False = inactive

Reference set, count: 2
[[record]]
molecule = "COCCn1c(=O)c(-c2cc(F)cc(F)c2)nc2cnc(N3CCNCC3)nc21"
label_class = "True"

[[record]]
molecule = "Cc1nnc(SC(C(=O)Nc2cc(Cl)cc(Cl)c2)c2ccccc2)[nH]c1=O (stereo not given)"
label_class = "False"


Dear all, I need the recorded test outcome for "Cc1ccc(C)c(S(=O)(=O)N2CCN(c3ncnc4sccc34)CC2)c1" , thank you.
True

What classification did "Cc1cccc(-n2ncc3c(=O)[nH]c(SCC(=O)Nc4cc(C)on4)nc32)c1" end up with in this test?
False

Each molecule tested received a call. Report the one for "Cc1nccn1-c1ccc(NC(=O)[C@H]2O[C@@H](n3cnc4c(N)ncnc43)[C@H](O)[C@@H]2O)cc1" .
False

---

# Protocol Details: qHTS for Inhibitors of human tyrosyl-DNA phosphodiesterase 1 (TDP1): qHTS in cells in absence of CPT; further: nearly all actives have a fitted effect of over 55% in size; further: potency means the concentration at half of the fitted maximal effect
# Experimental Conditions: DT40 Tdp1-/- hTDP1 cells, no CPT, ATP luminescence, 48 h
Among all 420,000 compounds or so, about 64,000 (15%) were called active. Not shown: some 27% with an inconclusive outcome. A selection follows.
Assay Readout: Potency

Take a look at these entries with their results.
[[record]]
molecule = "O=C1c2ccccc2C(Nc2ccc3c(c2)OCCO3)N1Cc1ccco1 (stereo not given)"
assay_readout = "Potency"
measurement = "14.6 µM (active)"

[[record]]
molecule = "O=C(N=C1SC2CS(=O)(=O)CC2N1c1ccccc1)c1ccccc1 (stereo not given)"
assay_readout = "Potency"
measurement = "inactive"

[[record]]
molecule = "c1ccc2cc(OCCN3CCCC3)ccc2c1"
assay_readout = "Potency"
measurement = "inactive"

[[record]]
molecule = "Cc1ccccc1C1=NC(C(F)(F)F)(C(F)(F)F)c2c(n(-c3ccc(F)cc3)c(=O)[nH]c2=O)N1"
assay_readout = "Potency"
measurement = "23.1 µM (active)"

[[record]]
molecule = "COc1ccc(C2COC(=O)C2=N)c(NC(=O)c2ccccc2)c1 (stereo not given)"
assay_readout = "Potency"
measurement = "inactive"

[[record]]
molecule = "CCOC(=O)[C@]12CCCC=C1N(Cc1cccc3ccccc13)C(=O)[C@H](CC(=O)NCC13CC4CC(CC(C4)C1)C3)C2"
assay_readout = "Potency"
measurement = "23.1 µM (active)"

[[record]]
molecule = "CC(=O)Oc1ccccc1C1=NN(C(C)=O)C(c2ccccc2)C1 (stereo not given)"
assay_readout = "Potency"
measurement = "inactive"

[[record]]
molecule = "Cc1cc(C)nc(NC(=O)Nc2ccccc2C(F)(F)F)n1"
assay_readout = "Potency"
measurement = "18.4 µM (active)"

[[record]]
molecule = "C=CCc1ccc(OCC(O)CN2CCN(Cc3ccccc3)CC2)c(OC)c1 (stereo not given)"
assay_readout = "Potency"
measurement = "inactive"

[[record]]
molecule = "C=CCn1c(=N)n(CC(O)COc2ccc(OC)cc2)c2ccccc21 (stereo not given)"
assay_readout = "Potency"
measurement = "20.6 µM (active)"


State its Potency: "Cc1cc(Cl)nc(NC(=O)Nc2cccc(Cl)c2)n1"
inactive

Tell us which Potency value is on record for Cc1ccc(S(=O)(=O)C(C#N)c2nc3ccccc3nc2N2CCCC2)cc1C (stereo not given)
inactive
